- assay system: galectin-3 (Homo sapiens)
- Sequence (P17931 whole entry): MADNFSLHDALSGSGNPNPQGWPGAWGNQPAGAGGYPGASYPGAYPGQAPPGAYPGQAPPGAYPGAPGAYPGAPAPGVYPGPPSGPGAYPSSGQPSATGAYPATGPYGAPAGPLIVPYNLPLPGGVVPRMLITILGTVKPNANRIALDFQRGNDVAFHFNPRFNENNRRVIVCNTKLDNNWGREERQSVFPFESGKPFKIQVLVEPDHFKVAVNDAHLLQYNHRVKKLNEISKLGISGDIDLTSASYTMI
- assay: fluorescence anisotropy assay, inhibition of galectin / fluorescein tagged saccharide probe interaction
Kindly state Kd for each of the entries shown.
Give the value in nM but do not write nM after it.

Task: Identify the measured Kd of OCC1O[C@@H](SC2O[C@H](CO)C(O)C(n3cc(-c4ccccn4)nn3)[C@H]2O)C(O)C(n2cc(-c3ccccn3)nn2)[C@H]1O (stereo in doubt) for galectin-3 (Homo sapiens).
Result: 42

Task: So what Kd did CC(=O)Nc1ccc(-c2cn(C3C(O)[C@@H](CO)OC(S[C@@H]4OC(CO)[C@H](O)C(n5cc(-c6cc(F)c(F)c(F)c6)nn5)C4O)[C@@H]3O)nn2)cn1 (stereo in doubt) get with galectin-3 (Homo sapiens)?
Result: 5

Task: Hi! What's the reported Kd for COc1ccc(-c2cn(C3C(O)[C@@H](CO)OC(S[C@@H]4OC(CO)[C@H](O)[C@H](n5cc(-c6ccc(OC)nc6)nn5)C4O)[C@@H]3O)nn2)cn1 (some centres unmarked) on galectin-3 (Homo sapiens)?
Result: 12
